# test-target: T1, ErbB2 extracellular domain (recombinant) (UniProt P04626 23-652, limits assumed)
# T1 construct: extracellular domain; also called whole ectodomain of erbB2; full-size erbB2 ectodomain
# protocol-details: SPR (Biacore 3000), peptide injected over immobilized receptor extracellular domain
pKd: −log10 of the molar value. Bridge positions count the residues as written; N and C are the ends. Ends that are not written are not given here.
recorded-metric: pKd

>>> print(df.to_string())
                                     binder  numeric_result
0  YCFPDEEGACY (disulfide 2-10 (inferred)) [B2-S22-AFA (derived from erbB2)]            6.52
1  YCPIYKYPDVQCY (disulfide 2-12 (inferred)) [B3-S22-APQ (derived from erbB3)]            6.26

[I] YCLVWKYADAGCY (disulfide 2-12 (inferred)) [B1-S22-ALG (derived from erbB1)]
[II] YCPIWKFPDEECY (disulfide 2-12 (inferred)) [B2-S22-APE (derived from erbB2)]
[III] YCFIFKYADPDCY (disulfide 2-12 (inferred)) [B4-S22-AFD (derived from erbB4)]
Arrange the 3 binders from largest to smallest pKd. Field: ranking. Enter the labels in the order requested.
I, III, II
(I: 6.43, III: 6.19, II: 5.82)
